Examples of compounds with documented pEC50 follow.
Target: CIC-1 ion channel (Rattus norvegicus, UniProt P35524)
Sequence (P35524 1-994): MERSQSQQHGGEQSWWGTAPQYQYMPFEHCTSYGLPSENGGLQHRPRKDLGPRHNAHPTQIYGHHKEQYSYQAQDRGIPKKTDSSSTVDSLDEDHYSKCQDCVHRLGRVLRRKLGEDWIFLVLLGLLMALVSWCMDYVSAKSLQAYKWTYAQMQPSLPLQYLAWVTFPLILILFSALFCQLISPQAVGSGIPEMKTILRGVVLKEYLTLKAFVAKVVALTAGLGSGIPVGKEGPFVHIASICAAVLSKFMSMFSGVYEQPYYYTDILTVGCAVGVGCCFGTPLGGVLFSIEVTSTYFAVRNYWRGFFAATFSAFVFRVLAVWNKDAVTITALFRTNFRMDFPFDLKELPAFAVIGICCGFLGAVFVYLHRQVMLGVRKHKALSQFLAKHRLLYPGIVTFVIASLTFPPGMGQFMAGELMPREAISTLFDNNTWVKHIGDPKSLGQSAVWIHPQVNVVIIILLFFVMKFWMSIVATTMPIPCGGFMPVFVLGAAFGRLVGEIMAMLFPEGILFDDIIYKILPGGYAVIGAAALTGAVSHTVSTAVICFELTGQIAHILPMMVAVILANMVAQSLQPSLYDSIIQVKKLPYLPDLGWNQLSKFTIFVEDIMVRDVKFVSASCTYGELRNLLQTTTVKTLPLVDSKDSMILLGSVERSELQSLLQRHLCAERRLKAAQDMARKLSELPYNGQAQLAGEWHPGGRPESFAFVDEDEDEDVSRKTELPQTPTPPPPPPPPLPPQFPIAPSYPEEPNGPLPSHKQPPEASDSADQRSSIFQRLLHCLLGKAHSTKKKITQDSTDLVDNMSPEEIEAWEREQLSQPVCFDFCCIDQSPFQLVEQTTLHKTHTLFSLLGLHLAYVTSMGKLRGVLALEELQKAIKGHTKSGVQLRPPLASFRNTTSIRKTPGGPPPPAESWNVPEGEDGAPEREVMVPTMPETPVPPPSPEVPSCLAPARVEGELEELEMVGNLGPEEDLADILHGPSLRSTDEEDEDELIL
Experiment: Electrophysiological measurement (Gm, three micro-electrode technique) of compound inhibition of CIC-1 in rat soleus muscle fibres
Settings: whole rat soleus muscle, Gm at four increasing concentrations, approx. 30° C., mean ± spread
pEC50: −log10 of the molar value.
ENDPOINT_LABEL: pEC50

- C[C@H](Oc1cc(F)c(Br)cc1C(C)(F)F)C(=O)O: 5.26
- CC(F)(F)c1cc(Br)ccc1O[C@@H](CF)C(=O)O: 5.49
- CCC(F)(F)c1cc(Cl)c(Cl)cc1O[C@@H](C)C(=O)O: 5.60
- CCC(F)(F)c1cc(Cl)c(F)cc1OCC(=O)O: 5.10
- CC[C@H](Oc1cc(F)c(Br)cc1C(F)(F)CC)C(=O)O: 5.70
- CCC(F)(F)c1cc(Br)c(F)cc1O[C@@H](C)C(=O)O: 6.05
- CCC(F)(F)c1cc(Br)ccc1OCC(=O)O: 5.12
- CCC(F)(F)c1cc(Br)c(F)cc1OCC(=O)O: 5.26
- CCC(F)(F)c1cc(Cl)ccc1O[C@@H](CF)C(=O)O: 5.48
- CCC(F)(F)c1cc(Cl)c(F)cc1O[C@@H](C)C(=O)O: 5.64
- CCC(F)(F)c1cc(Cl)c(F)cc1O[C@@H](CF)C(=O)O: 5.96
- CCC(F)(F)c1cc(Br)c(F)cc1O[C@@H](CF)C(=O)O: 5.96
- CCC(F)(F)c1cc(Cl)ccc1O[C@@H](C)C(=O)O: 5.40
- CC(C)C(F)(F)c1cc(Br)ccc1O[C@@H](C)C(=O)O: 5.46
- CCC(F)(F)c1cc(Br)ccc1O[C@@H](CF)C(=O)O: 5.80
- CC(C)C(F)(F)c1cc(Br)ccc1OCC(=O)O: 5.13
- CC(F)(F)c1cc(Br)c(F)cc1O[C@@H](CF)C(=O)O: 5.54
- CCC(F)(F)c1cc(I)ccc1O[C@@H](C)C(=O)O: 5.72
